System: MCF7 (MCF7/ATCC) cells
Assay: Cell viability (cell kill) assay, nuclear counts
Type: cell-based
Conditions: MCF7/ATCC; Table 18
quantity: % Kill (%)
API: value field is a number in %; no unit string.

Completed entries (count: 5):
[
  {
    "molecule": "H1H6953N-SMCC-DM1 (conjugate) VH: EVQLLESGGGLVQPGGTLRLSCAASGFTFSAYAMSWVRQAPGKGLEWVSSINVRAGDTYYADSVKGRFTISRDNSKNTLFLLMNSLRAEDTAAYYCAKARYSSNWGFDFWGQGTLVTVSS VL: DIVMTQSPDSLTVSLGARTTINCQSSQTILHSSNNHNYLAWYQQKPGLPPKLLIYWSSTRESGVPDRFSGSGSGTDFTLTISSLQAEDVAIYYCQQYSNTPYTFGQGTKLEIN",
    "quantity": "% Kill",
    "value_units": "%",
    "meas_value": 70
  },
  {
    "molecule": "H1H6958N2-DM1: anti-PRLR antibody H1H6958N2 conjugated to DM1 through an SMCC linker (conjugate) VH: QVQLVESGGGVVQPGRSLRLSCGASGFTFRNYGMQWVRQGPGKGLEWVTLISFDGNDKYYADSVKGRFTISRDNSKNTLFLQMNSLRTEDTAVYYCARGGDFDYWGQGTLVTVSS VL: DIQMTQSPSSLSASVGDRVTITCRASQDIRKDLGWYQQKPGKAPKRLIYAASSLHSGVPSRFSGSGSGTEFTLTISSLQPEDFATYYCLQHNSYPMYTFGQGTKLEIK",
    "quantity": "% Kill",
    "value_units": "%",
    "meas_value": 72
  },
  {
    "molecule": "H1H6765P-mc-VC-PAB-MMAE (conjugate) VH: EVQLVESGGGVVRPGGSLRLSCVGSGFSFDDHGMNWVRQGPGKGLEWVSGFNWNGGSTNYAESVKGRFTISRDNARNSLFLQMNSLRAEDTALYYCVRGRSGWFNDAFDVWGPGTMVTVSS VL: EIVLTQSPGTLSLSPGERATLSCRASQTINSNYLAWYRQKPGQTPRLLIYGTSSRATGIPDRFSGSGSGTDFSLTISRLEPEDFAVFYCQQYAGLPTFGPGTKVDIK",
    "quantity": "% Kill",
    "value_units": "%",
    "meas_value": 38
  },
  {
    "molecule": "H1H6953N-mc-VC-PAB-MMAE (conjugate) VH: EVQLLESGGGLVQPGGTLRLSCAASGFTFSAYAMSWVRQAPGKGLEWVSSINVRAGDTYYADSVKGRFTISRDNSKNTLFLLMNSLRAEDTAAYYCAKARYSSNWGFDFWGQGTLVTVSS VL: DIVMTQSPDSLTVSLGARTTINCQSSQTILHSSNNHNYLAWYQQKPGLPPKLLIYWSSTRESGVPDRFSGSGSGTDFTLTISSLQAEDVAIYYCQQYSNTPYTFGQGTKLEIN",
    "quantity": "% Kill",
    "value_units": "%",
    "meas_value": 42
  },
  {
    "molecule": "H1H6958N2-mc-VC-PAB-MMAE (conjugate) VH: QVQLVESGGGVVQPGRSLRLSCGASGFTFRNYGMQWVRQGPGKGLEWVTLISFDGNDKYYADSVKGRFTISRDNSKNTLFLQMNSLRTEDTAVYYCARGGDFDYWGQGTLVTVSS VL: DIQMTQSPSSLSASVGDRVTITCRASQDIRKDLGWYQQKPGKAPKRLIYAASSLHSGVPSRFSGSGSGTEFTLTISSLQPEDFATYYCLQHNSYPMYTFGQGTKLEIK",
    "quantity": "% Kill",
    "value_units": "%",
    "meas_value": 53
  }
]

Switching to the query record.
**Q:** Can you share its % Kill? I mean this molecule: H1H6765P-SMCC-DM1 (conjugate) VH: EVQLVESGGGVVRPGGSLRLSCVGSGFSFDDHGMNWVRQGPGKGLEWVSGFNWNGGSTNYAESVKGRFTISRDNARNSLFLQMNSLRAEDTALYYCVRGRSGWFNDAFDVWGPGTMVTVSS VL: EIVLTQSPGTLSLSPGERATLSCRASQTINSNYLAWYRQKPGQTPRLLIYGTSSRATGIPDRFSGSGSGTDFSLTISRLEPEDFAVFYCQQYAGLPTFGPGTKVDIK
**A:** 71
